- target-or-test-system: T1, Human soluble IL-6R (human, UniProt P08887 20-358)
- T1 construct: Soluble recombinant form; biotinylated in some assays; also called hIL-6R; human IL-6R
- T1 sequence (looked up): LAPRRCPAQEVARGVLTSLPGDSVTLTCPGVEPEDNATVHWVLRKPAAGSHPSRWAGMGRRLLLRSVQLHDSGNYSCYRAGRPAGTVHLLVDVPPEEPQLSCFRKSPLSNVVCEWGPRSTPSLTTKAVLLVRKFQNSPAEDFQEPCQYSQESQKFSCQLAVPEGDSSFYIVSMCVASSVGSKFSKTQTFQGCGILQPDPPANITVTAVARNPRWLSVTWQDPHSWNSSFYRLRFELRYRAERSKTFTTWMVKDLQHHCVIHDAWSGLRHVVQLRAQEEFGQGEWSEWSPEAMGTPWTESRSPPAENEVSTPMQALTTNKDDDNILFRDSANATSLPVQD
- protocol-description: Biacore off-rate, periplasmic extract
Classify as follows. Reported koff greater than or equal to 0.0004 s⁻¹: Met. Reported koff below: Not met.

| binder | assigned-class |
| --- | --- |
| IL6R14 (VHH, also called PMP40H5; not shown: C-terminal c-myc and (His)6 tags) VHH: EVQLVESGGGLVQPGGSLRLSCAASGFSLDYYAIGWFRQAPGKEREGVSCMDSSSGTTSTYYSDSVKGRFTISRDDAKNTVYLQMNSLKPEDTAVYYCAADGHLNWGQRYVPCSQISWRGWNDYWGQGTQVTVSS | Not met |
| IL6R11 (VHH, also called PMP35E11; not shown: C-terminal c-myc and (His)6 tags) VHH: EVQLVESGGGLVQAGGSLRLSCAASGFTFDDYAIGWFRQAPGKEHEGVSCISSSDGSTYYADSVKGRFTISSDNAKNTVYLQMNSLKPEDTAVYYCAAERDVPARSLCGSYYWYDYRGQGTQVTVSS | Met |
| IL6R10 (VHH, also called PMP35C10; not shown: C-terminal c-myc and (His)6 tags) VHH: EVQLVESGGGLVQAGGSLRLSCAASGRTFSSYDMGWYRQAPGKEREFVAVIHWSSGSTYYADPVKGRFTISRDNAKNTVYLQMNSLKPEDTAIYYCNAFLPGPEGFHDYWGQGTQVTVSS | Met |
| IL6R02 (VHH, also called PMP30C11; not shown: C-terminal c-myc and (His)6 tags) VHH: EVQLVESGGGLVQAGGSLRLSCAASGRTFSSYDMGWYRQAPGKEREFVAVISRSGSSTYYADSVKGRFTISRDNAKNTVYLQMNSLKPEDTAIYYCKAEVVAGDYDYWGQGTQVTVSS | Met |
| IL6R13 (VHH, also called PMP35H4; not shown: C-terminal c-myc and (His)6 tags) VHH: EVQLVESGGGLVQPGGSLRLSCAASGFTFDDYGMSWVRQAPGRATEWVSAISWNGNNTYYTESMKGRFTISRDNAKNTVYLQMNSLKPEDTAVYYCVKGSTAIVGVPPTYPDEYDYWGQGTQVTVSS | Not met |
| IL6R12 (VHH, also called PMP35F4; not shown: C-terminal c-myc and (His)6 tags) VHH: EVQLVESGGGLVQAGGSLRLSCAASGRTFSSYDMGWYRQAPGKEREFVAIITWNSSTYYADSVKGRFTISRDNAKNTVYLQMNSLKPEDTAIYYCNAQYGLGYAEDYWGQGTQVTVSS | Met |

Where do the numbers come from? From patent US20120077731A1.
